Measured Kd of individual entries
- study system: T1, Histidine-tagged human PD-1 protein (hPD-1-His) (human, UniProt Q15116 25-170, limits assumed)
- T1 construct: Soluble analyte in SPR; not shown: histidine tag
- T1 sequence (Q15116 25-170 limits assumed): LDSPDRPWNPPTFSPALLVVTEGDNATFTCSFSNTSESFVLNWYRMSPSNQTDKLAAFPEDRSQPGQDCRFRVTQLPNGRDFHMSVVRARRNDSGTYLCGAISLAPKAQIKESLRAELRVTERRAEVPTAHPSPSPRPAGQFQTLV
- assay procedure: SPR (Biacore T200), antibody captured on Protein A chip, hPD-1-His analyte, 1:1 fit
Please reply with the bare figure in nM and do not write the unit itself.

Some binders with recorded Kd:
{"binder": "3F1-H4K2-IgG4-S228P (antibody, V domains shown, Humanized; human IgG4 constant domains with S228P (EU numbering)) VH: QVQLQQSGAEVAKPGASVKMSCKASGYTFTSYWMHWVKQRPGQGLEWIGYINPSTGYTEYNQKFKDRATLTADKSTSTAYMELSSLTSEDTAVYYCARGVRYYFDYWGQGTLLTVSS VL: DIVMTQSPDSLAVSLGERATMSCKSSQSLLNSRTRKNYLAWYQQKPGQSPKLLIYWASTRESGVPDRFSGSGSGTDFTLTISSVQAEDVAVYYCKQSYNLLTFGQGTKLELK", "value kind": "Kd", "test value": 369}
{"binder": "3F1-H3K2-IgG4-S228P (antibody, V domains shown, Humanized; human IgG4 constant domains with S228P (EU numbering)) VH: QVQLQQSGAEVAKPGASVKMSCKASGYTFTSYWMHWVKQRPGQGLEWIGYINPSTGYTEYNQKFKDRATLTADTSTSTAYMELSSLRSEDTAVYYCARGVRYYFDYWGQGTLLTVSS VL: DIVMTQSPDSLAVSLGERATMSCKSSQSLLNSRTRKNYLAWYQQKPGQSPKLLIYWASTRESGVPDRFSGSGSGTDFTLTISSVQAEDVAVYYCKQSYNLLTFGQGTKLELK", "value kind": "Kd", "test value": 296}

**Q:** Please report the recorded Kd for 3F1-H2K1-IgG4-S228P (antibody, V domains shown, Humanized; human IgG4 constant domains with S228P (EU numbering)) VH: QVQLQQSGAEVKKPGASVKMSCKASGYTFTSYWMHWVKQRPGQGLEWIGYINPSTGYTEYNQKFKDRATLTADKSTSTAYMELSSLRSEDTAVYYCARGVRYYFDYWGQGTLVTVSS VL: DIVMTQSPDSLAVSLGERATISCKSSQSLLNSRTRKNYLAWYQQKPGQSPKLLIYWASTRESGVPDRFSGSGSGTDFTLTISSVQAEDVAVYYCKQSYNLLTFGQGTKLELK .
**A:** 422

**Q:** What do we get for 1A7-H2K3-IgG4-S228P (antibody, V domains shown, Humanized; human IgG4 constant domains with S228P (EU numbering)) VH: EVQLVESGGGLVQPGGSLRLSCAASGFTFSSYSMSWVRQAPGKRLEWVAHISSGGSSTYYPDTVKGRFTISRDNSKNTLYLQMNSLRAEDTAMYYCTRQFYYGSSFWYFDVWGAGTTVTVSS VL: DNVLTQSPATLSVSPGERATLSCKASQSVDFDGDSYMNWYQQKPGQPPRLLIYAASNLESGIPARFSGSGSGTDFTLTISSVEPEDFATYYCQQSNEDPPTFGGGTKVEIK ?
**A:** 11.9

**Q:** Another: 3F1-H3K1-IgG4-S228P (antibody, V domains shown, Humanized; human IgG4 constant domains with S228P (EU numbering)) VH: QVQLQQSGAEVAKPGASVKMSCKASGYTFTSYWMHWVKQRPGQGLEWIGYINPSTGYTEYNQKFKDRATLTADTSTSTAYMELSSLRSEDTAVYYCARGVRYYFDYWGQGTLLTVSS VL: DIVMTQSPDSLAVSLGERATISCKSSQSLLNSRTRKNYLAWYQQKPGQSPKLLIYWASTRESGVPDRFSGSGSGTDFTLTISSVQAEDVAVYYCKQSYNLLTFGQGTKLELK
**A:** 395

**Q:** Also, 1A7-H2K2-IgG4-S228P (antibody, V domains shown, Humanized; human IgG4 constant domains with S228P (EU numbering)) VH: EVQLVESGGGLVQPGGSLRLSCAASGFTFSSYSMSWVRQAPGKRLEWVAHISSGGSSTYYPDTVKGRFTISRDNSKNTLYLQMNSLRAEDTAMYYCTRQFYYGSSFWYFDVWGAGTTVTVSS VL: DNVLTQSPATLSVSPGERATLSCKASQSVDFDGDSYMNWYQQKPGQPPRLLIYAASNLESGIPARFSGSGPGTDFTLTISSLEPEDFATYYCQQSNEDPPTFGGGTKVEIK please.
**A:** 57.8

**Q:** Likewise for 3F1-H2K2-IgG4-S228P (antibody, V domains shown, Humanized; human IgG4 constant domains with S228P (EU numbering)) VH: QVQLQQSGAEVKKPGASVKMSCKASGYTFTSYWMHWVKQRPGQGLEWIGYINPSTGYTEYNQKFKDRATLTADKSTSTAYMELSSLRSEDTAVYYCARGVRYYFDYWGQGTLVTVSS VL: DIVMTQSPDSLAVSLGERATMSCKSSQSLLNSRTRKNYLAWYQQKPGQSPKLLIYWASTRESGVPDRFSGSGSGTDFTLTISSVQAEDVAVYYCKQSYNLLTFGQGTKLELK ?
**A:** 354

**Q:** What do you get for 1A7-H3K2-IgG4-S228P (antibody, V domains shown, Humanized; human IgG4 constant domains with S228P (EU numbering)) VH: EVKLVESGGGLVQPGGSLRLSCAASGFTFSSYSMSWVRQAPGKRLEWVAHISSGGSSTYYPDTVKGRFTISRDNSKNTLYLQMNSLRAEDTAMYYCTRQFYYGSSFWYFDVWGAGTTVTVSS VL: DNVLTQSPATLSVSPGERATLSCKASQSVDFDGDSYMNWYQQKPGQPPRLLIYAASNLESGIPARFSGSGPGTDFTLTISSLEPEDFATYYCQQSNEDPPTFGGGTKVEIK ?
**A:** 58.2

**Q:** Query 1A7-H3K1-IgG4-S228P (antibody, V domains shown, Humanized; human IgG4 constant domains with S228P (EU numbering)) VH: EVKLVESGGGLVQPGGSLRLSCAASGFTFSSYSMSWVRQAPGKRLEWVAHISSGGSSTYYPDTVKGRFTISRDNSKNTLYLQMNSLRAEDTAMYYCTRQFYYGSSFWYFDVWGAGTTVTVSS VL: DNVLTQSPATLSLSPGERATLSCKASQSVDFDGDSYMNWYQQKPGQPPRLLIYAASNLESGIPARFSGSGPGTDFTLTISSLEPEDFATYYCQQSNEDPPTFGGGTKVEIK next
**A:** 39.9

**Q:** Another binder to check: 1A7-H1K3-IgG4-S228P (antibody, V domains shown, Humanized; human IgG4 constant domains with S228P (EU numbering)) VH: EVQLLESGGGLVQPGGSLRLSCAASGFTFSSYSMSWVRQAPGKRLEWVAHISSGGSSTYYPDTVKGRFTISRDNSKNTLYLQMNSLRAEDTAMYYCTRQFYYGSSFWYFDVWGQGTTVTVSS VL: DNVLTQSPATLSVSPGERATLSCKASQSVDFDGDSYMNWYQQKPGQPPRLLIYAASNLESGIPARFSGSGSGTDFTLTISSVEPEDFATYYCQQSNEDPPTFGGGTKVEIK
**A:** 10.1

**Q:** Another binder: 1A7-H1K2-IgG4-S228P (antibody, V domains shown, Humanized; human IgG4 constant domains with S228P (EU numbering)) VH: EVQLLESGGGLVQPGGSLRLSCAASGFTFSSYSMSWVRQAPGKRLEWVAHISSGGSSTYYPDTVKGRFTISRDNSKNTLYLQMNSLRAEDTAMYYCTRQFYYGSSFWYFDVWGQGTTVTVSS VL: DNVLTQSPATLSVSPGERATLSCKASQSVDFDGDSYMNWYQQKPGQPPRLLIYAASNLESGIPARFSGSGPGTDFTLTISSLEPEDFATYYCQQSNEDPPTFGGGTKVEIK
**A:** 32.1

Data origin, for the record: patent US20250034256A1
